The following compounds are listed with their measured pKi values.
Test: Kinetic constant for galactosyltransferase inhibition was determined
pKi: −log10 of the molar value.
Property: pKi

| Compound | Observed |
| --- | --- |
| O=c1ccn([C@@H]2O[C@H](COP(=O)(O)OP(=O)(O)OP(=O)(O)O)[C@@H](O)[C@H]2O)c(=O)[nH]1 [uridine 5'-(tetrahydrogen triphosphate)] | 3.89 |
| O=c1ccn(C2O[C@H](COP(=O)(O)OP(=O)(O)C3O[C@H](CO)[C@@H](O)[C@H](O)[C@H]3O)[C@@H](O)[C@H]2O)c(=O)[nH]1 (some centres not stated) | 3.78 |
